molecular target: Nuclear receptor subfamily 5 group A member 2 (Homo sapiens); assay: LRH-1 (NR5A2) inverse agonists, retest, confirmation, cell-based, luminescence (AID 651613); conditions: cell-based LRH-1 luciferase reporter, inverse agonism; at 3.6 µM; active compounds read high;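 further: HEK293T cells co-transfected with LRH-1 and StAR promoter luciferase reporter; 0% = vehicle wells and 100% = parental cells lacking receptor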
recorded.metric: inhibition (%)

>>> measured_number("O=C(CSc1nnc(-c2cccnc2)s1)Nc1ccnc2ccccc12")
57
>>> measured_number("O=C(O)C1CCCCC1C(=O)Nc1ccc2c(c1)OCCO2 (stereo not drawn)")
-1.32
>>> measured_number("CC1(C(=O)NCc2ccc3c(c2)OCO3)CCN1C(=O)Cc1ccc(Cl)cc1Cl (stereo not drawn)")
56.5
>>> measured_number("COc1ccc(-n2c(/C=C(\\C)O)nc(=O)c3c(C)cc(C)nc32)cc1")
51.8
>>> measured_number("O=C(OCCC12CC3CC(CC(C3)C1)C2)c1ccc(NCc2cc(O)ccc2O)cc1")
80.7
>>> measured_number("CC1(C(=O)NCc2ccc(Cl)cc2)CCN1C(=O)Cc1ccc(Cl)cc1Cl (stereo not drawn)")
44.1
>>> measured_number("CCOc1ccc(NC(=O)CSc2nnc(CNC(=O)c3cccs3)o2)cc1")
60.3
>>> measured_number("COc1ccc(CN(C)C(=O)CCl)cc1")
53.5
>>> measured_number("CC1CN(S(=O)(=O)c2ccc(C(=O)NCCCn3ccnc3)cc2)CC(C)O1 (stereo not drawn)")
99.2
>>> measured_number("COc1ccc(OC)c(/C=N/N=C2\\SCC(=O)N2Cc2ccco2)c1")
57.4
>>> measured_number("CCCCCc1c(CC)ncn1CCc1ccccc1OC")
23.2
>>> measured_number("CN(C)c1ccc2nc3ccc(=[N+](C)C)cc-3sc2c1")
59.9
>>> measured_number("Cc1ccc(S(=O)(=O)/N=C(\\CCl)N2CCOCC2)cc1")
50.2
>>> measured_number("CCn1cc(Br)c(C(=O)Nc2ccccc2C(=O)OC)n1")
47.4
>>> measured_number("C[n+]1c(-c2ccccc2)cc2c(=Cc3ccccc3)c3ccccc3n21")
98.1
>>> measured_number("CC(C)CCCCCCCCCCCCC(=O)NCC(=O)NC1C(O)C(O)C(Nc2ncnc3nc[nH]c23)OC1C(O)CO (stereo not drawn)")
110
>>> measured_number("O=[N+]([O-])c1ccc(Sc2nnnn2-c2ccccc2)c(Cl)c1")
25.6
>>> measured_number("CCc1cccc2sc(N3CCN(C(=O)c4ccc([N+](=O)[O-])o4)CC3)nc12")
57.7
>>> measured_number("O=C(c1ccc(Cl)cc1)N1CCCCC(Cl)C1=O (stereo not drawn)")
56.1
>>> measured_number("Cc1sc2ncnc(NCCc3ccc(S(N)(=O)=O)cc3)c2c1C")
53
>>> measured_number("O=[N+]([O-])c1ccc(N2CCCCC2)cc1N1CCOCC1")
54.3
>>> measured_number("COc1ccc(-c2nnnn2-c2ccccc2OC)cc1")
53.8
>>> measured_number("COc1ccc(-c2c[n+](CC(=O)OC3CC(C)CCC3C(C)C)c3n2CCC3)cc1 (stereo not drawn)")
95.2
